Test system: 22Rv1 cells
assay: Cell-based assay: anti-proliferative activity, Cell Counting Kit-8, 72 hours (22Rv1)
Structures can show the parent of a compound that is named as a salt.
reported metric: IC50 (µM)
Write down the numeric answer in µM and omit the unit.

Reported IC50 for 22Rv1 cells, given CC(=O)c1cnc2ccc(-c3cc(F)c(O)c(Cl)c3)cc2c1N[C@H]1CC[C@H](C(=O)N(C)C)CC1 [Example 870, hydrochloride] ?
2.3

----------
tested on: MELK (Homo sapiens, UniProt Q14680)
Sequence (Q14680 whole entry, looked up): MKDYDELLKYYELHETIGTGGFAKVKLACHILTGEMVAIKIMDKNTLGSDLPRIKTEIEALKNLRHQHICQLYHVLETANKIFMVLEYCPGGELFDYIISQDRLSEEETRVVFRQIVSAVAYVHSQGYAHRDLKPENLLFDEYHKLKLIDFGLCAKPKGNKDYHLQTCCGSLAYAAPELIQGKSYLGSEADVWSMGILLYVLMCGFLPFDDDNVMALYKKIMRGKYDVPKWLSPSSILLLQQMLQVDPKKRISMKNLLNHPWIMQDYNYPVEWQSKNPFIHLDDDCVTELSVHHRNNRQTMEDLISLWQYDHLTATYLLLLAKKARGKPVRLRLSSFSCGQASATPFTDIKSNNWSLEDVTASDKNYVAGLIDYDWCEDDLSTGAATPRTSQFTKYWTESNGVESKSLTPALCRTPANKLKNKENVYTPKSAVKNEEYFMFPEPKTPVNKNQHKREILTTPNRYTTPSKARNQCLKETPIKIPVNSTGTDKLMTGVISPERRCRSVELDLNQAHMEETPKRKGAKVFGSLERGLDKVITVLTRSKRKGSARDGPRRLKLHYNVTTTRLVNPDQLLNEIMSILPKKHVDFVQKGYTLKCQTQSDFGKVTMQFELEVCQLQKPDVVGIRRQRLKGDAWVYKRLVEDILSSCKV
assay: Kinase assay: MELK activity, phosphorylation of FITC-labeled histone H3 peptide measured by IMAP fluorescence polarization
Format: biochemical
condition parameters: read-out: IC50 (μM) (kinase assay)
Label true when IC50 < 0.006 µM; otherwise false.

Input CN[C@H]1CC[C@H](n2cc(Nc3c(C(=O)C4CC4)cnc4ccc(-c5cc(Cl)c(O)c(Cl)c5)cc34)cn2)CC1 [Example 705] ; condition: IC50 strictly below 0.006 µM. Does it hold?
true

Input CCCC(=O)c1cnc2ccc(-c3cc(Cl)c(O)c(OC)c3)cc2c1Nc1ccc(CN(C)C)cc1 [Example 538] ; condition: IC50 strictly below 0.006 µM. Does it hold?
false

Input CC(=O)c1cnc2ccc(-c3cc(F)c(O)c(Cl)c3)cc2c1Nc1ccc(N2CCN(C)CC2)nc1 [Example 487] ; condition: IC50 strictly below 0.006 µM. Does it hold?
false

Input COc1cc(-c2ccc3ncc(C(C)=O)c(Nc4ccc(CCN(C)C)cc4)c3c2)cc(Cl)c1O [Example 743] ; condition: IC50 strictly below 0.006 µM. Does it hold?
true

Input O=C(c1cnc2ccc(-c3cc(F)c(O)c(Cl)c3)cc2c1Nc1ccc(NC2CCCNC2)nc1)C1CC1 (centres unmarked) [Example 611] ; condition: IC50 strictly below 0.006 µM. Does it hold?
true
